Biological target: T1, Vta1 N-terminal domain (residues 1–167) (S. cerevisiae, UniProt Q06263 1-167)
T1 construct: Vta1, S. cerevisiae, N-terminal domain with two tandem MIT domains, residues 1-167; Isotope labelled (15N, 13C, 70% 2H) or unlabelled, depending on the NMR sample; also called Vta1NTD; WT Vta1NTD; source: E. coli BL21(DE3), purified (Ni-NTA, ULP1 cleavage, second Ni-NTA, Resource Q); not shown: His6, N-terminal, cleaved; SUMO, N-terminal, cleaved
T1 sequence (looked up): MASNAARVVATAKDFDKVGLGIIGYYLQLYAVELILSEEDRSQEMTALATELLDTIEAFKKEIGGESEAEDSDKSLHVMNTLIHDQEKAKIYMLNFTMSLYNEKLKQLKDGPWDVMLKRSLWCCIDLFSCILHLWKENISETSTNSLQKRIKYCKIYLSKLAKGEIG
Test: ITC; about 0.1 mM Vta1NTD titrated with 2.0 mM Did2_(176–204) peptide, iTC-200, 25 °C, 25 mM sodium phosphate pH 7.0, 50 mM NaCl, one set of sites model
Conditions: both partners purified

- binder: "WNVPEIKAKEVNVDDEKEDKLAQRLRALRG (extra tryptophan inserted at the N-terminus of the peptide to estimate its concentration; Natural stretch with one added N-terminal Trp; Isotope labelled (15N, 13C) or unlabelled, depending on the NMR sample; source: E. coli BL21(DE3), purified (Ni-NTA, Resource Q, ULP1 cleavage, Superdex 75), lyophilized; not shown: His6, N-terminal, cleaved; SUMO, N-terminal, cleaved) [Did2 fragment (176–204 aa)]"
  Kd, µM: 12.8
